# system under test: MYLK (human)
# method notes: KINOMEscan competition binding
# test parameters: compound 10.0 µM
Exercise: for every item that follows, state its recorded kinase still bound, per cent of control.
Answers are plain numbers, in %.

| compound | system under test | kinase still bound, per cent of control [%] |
| --- | --- | --- |
| N#Cc1cc(-c2ccnc(Nc3ccc(-n4cnc(-c5cccnc5)n4)cc3)n2)cc(N2CCOCC2)c1 | MYLK (human) | 100 |

Dear colleague, could you please provide kinase still bound, per cent of control for the compounds listed below?
1. CCc1nc(-c2cccc(C)c2)c(-c2ccnc(NC(=O)c3ccccc3)c2)s1
2. COc1cc(C)c(Sc2cnc(NC(=O)c3ccc(CNC(C)C(C)C)cc3)s2)cc1C(=O)N1CCN(C(C)=O)CC1 (centres undefined)
3. O=c1[nH]c2ccccc2n1C1CCN(Cc2ccc(-c3nc4cc5[nH]cnc5cc4nc3-c3ccccc3)cc2)CC1

Response:
1. 84
2. 100
3. 57

---

# Test system: FLT3 (human), P36888 [D835Y]
# method notes: KINOMEscan competition binding
# test parameters: compound 10.0 µM
measured metric: kinase still bound, per cent of control

| compound | kinase still bound, per cent of control |
| --- | --- |
| N#C/C(=C1/Nc2ccccc2S1)c1ccnc(NCCc2cccnc2)n1 | 53% |

// each compound listed below needs its kinase still bound, per cent of control
1. COc1cc(C)c(Sc2cnc(NC(=O)c3ccc(CNC(C)C(C)C)cc3)s2)cc1C(=O)N1CCN(C(C)=O)CC1 (centres undefined)
2. O=c1[nH]c2ccccc2n1C1CCN(Cc2ccc(-c3nc4cc5[nH]cnc5cc4nc3-c3ccccc3)cc2)CC1
3. Nc1ccc(-c2ccc3ncc4ccc(=O)n(-c5cccc(C(F)(F)F)c5)c4c3c2)cn1
4. COc1cc(C(=O)NC2CCN(C)CC2)ccc1Nc1ncc2c(n1)N(C1CCCC1)CCC(=O)N2C(C)C
5. Cc1ccc2nc(NCCN)c3ncc(C)n3c2c1
6. CCN(CC)CCCCNc1ncc2c(n1)N(C)C(=O)N(c1c(Cl)c(OC)cc(OC)c1Cl)C2
7. CC(=O)c1c(C)c2cnc(Nc3ccc(N4CCNCC4)cn3)nc2n(C2CCCC2)c1=O

Response:
1. 26%
2. 51%
3. 32%
4. 100%
5. 97%
6. 100%
7. 1.6%

Observed kinase still bound, per cent of control on FLT3 (human), P36888 [D835Y], entry CNC(=O)c1cc(Oc2ccc(NC(=O)Nc3ccc(Cl)c(C(F)(F)F)c3)cc2)ccn1 , equals 3.2%

---

# system under test: HIPK3 (human)
# method notes: KINOMEscan competition binding
# test parameters: compound 10.0 µM
hey, just use Met if measured kinase still bound, per cent of control is less than 50%, otherwise Not met

| item smiles | class assignment |
| --- | --- |
| CCCS(=O)(=O)Nc1ccc(F)c(C(=O)c2c[nH]c3ncc(Cl)cc23)c1F | Met |
| C=CC(=O)Nc1ccc(C(=O)c2sc(Nc3ccc(N4CCN(C)CC4)cc3OC)nc2N)cc1 | Met |
| COc1cc2ncnc(Nc3cccc(Cl)c3)c2cc1OC | Not met |
| CCN1CCN(Cc2ccc(NC(=O)c3ccc(C)c(/C=C/c4cnc5[nH]ccc5c4OC)c3)cc2C(F)(F)F)CC1 | Met |
| O=c1[nH]c2ccccc2n1C1CCN(Cc2ccc(-c3nc4cc5[nH]cnc5cc4nc3-c3ccccc3)cc2)CC1 | Not met |

Now look at this one.
Request: State whether 50% exceeds kinase still bound, per cent of control recorded for CCc1nc(-c2cccc(C)c2)c(-c2ccnc(NC(=O)c3ccccc3)c2)s1 .
Response: Not met

---

# system under test: UniProtKB Q56UN5
# Sequence (Q56UN5 whole entry, looked up): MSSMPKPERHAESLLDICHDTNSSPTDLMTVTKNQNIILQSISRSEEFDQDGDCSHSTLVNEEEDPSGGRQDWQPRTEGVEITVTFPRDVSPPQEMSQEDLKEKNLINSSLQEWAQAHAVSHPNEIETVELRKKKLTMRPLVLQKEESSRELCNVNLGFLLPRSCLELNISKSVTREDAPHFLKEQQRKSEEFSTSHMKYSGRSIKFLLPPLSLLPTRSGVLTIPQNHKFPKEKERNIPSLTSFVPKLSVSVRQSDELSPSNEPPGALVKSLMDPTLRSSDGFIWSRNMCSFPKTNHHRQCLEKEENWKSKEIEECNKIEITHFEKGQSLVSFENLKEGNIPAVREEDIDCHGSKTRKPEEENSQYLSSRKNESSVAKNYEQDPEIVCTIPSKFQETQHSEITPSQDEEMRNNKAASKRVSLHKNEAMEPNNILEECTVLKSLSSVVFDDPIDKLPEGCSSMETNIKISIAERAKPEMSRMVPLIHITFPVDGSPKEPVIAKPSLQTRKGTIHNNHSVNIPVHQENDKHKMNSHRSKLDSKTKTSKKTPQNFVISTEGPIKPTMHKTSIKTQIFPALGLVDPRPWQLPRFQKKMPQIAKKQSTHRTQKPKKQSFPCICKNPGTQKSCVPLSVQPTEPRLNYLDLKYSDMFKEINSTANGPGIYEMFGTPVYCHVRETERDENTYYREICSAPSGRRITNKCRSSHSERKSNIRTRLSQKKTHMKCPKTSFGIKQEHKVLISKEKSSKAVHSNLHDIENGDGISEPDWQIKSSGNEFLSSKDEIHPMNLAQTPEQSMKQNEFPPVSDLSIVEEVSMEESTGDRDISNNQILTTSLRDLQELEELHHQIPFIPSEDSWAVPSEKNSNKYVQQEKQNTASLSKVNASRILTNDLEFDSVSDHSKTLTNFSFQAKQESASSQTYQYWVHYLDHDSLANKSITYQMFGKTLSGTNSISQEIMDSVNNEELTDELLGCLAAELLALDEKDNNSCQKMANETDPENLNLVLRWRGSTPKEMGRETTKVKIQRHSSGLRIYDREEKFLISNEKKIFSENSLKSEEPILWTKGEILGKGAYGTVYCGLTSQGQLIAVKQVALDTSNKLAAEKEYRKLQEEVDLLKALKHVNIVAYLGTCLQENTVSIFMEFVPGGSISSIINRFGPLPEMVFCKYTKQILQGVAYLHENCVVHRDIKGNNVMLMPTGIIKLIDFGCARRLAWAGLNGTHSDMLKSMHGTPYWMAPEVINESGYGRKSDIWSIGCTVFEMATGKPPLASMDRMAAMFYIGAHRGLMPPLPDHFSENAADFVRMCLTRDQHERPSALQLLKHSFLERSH
# method notes: KINOMEscan competition binding
# test parameters: compound 10.0 µM
Consider the following compounds; for each one, report its kinase still bound, per cent of control.
Numbers only, in %.

Sample answers from the record:
| item smiles | measured result |
| --- | --- |
| Cc1cn(-c2cc(C(=O)Nc3ccc(C)c(NC(=O)c4ccno4)c3)cc(C(F)(F)F)c2)cn1 | 100 |
| N#Cc1cc(-c2ccnc(Nc3ccc(-n4cnc(-c5cccnc5)n4)cc3)n2)cc(N2CCOCC2)c1 | 0.25 |

Could you report kinase still bound, per cent of control for every entry in the following list?
1. COc1cc2ncnc(Nc3cccc(Cl)c3)c2cc1OC
2. CCN(CCO)CCCOc1ccc2c(Nc3cc(CC(=O)Nc4cccc(F)c4)[nH]n3)ncnc2c1
3. CCN1CCN(Cc2ccc(NC(=O)c3ccc(C)c(/C=C/c4cnc5[nH]ccc5c4OC)c3)cc2C(F)(F)F)CC1

Response:
1. 3.2
2. 39
3. 0.2

---

# system under test: MAP3K2 (human) (UniProt Q9Y2U5)
# Sequence (Q9Y2U5 whole entry, looked up): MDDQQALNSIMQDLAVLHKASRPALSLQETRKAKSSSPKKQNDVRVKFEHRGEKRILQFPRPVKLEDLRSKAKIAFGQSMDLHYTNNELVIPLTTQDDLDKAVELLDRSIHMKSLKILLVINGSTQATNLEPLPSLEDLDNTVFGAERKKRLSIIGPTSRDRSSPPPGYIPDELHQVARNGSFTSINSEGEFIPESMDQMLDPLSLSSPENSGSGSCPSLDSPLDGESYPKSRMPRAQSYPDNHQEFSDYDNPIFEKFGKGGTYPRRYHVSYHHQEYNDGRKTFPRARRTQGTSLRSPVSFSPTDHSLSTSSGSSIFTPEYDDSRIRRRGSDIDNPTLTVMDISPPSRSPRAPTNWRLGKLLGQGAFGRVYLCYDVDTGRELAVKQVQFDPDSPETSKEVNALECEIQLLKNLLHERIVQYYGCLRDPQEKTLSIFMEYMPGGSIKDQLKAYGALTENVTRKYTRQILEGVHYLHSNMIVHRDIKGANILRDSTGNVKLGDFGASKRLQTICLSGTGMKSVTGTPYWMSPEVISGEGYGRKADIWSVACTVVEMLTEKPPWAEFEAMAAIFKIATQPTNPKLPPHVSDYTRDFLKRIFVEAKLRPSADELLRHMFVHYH
# method notes: KINOMEscan competition binding
# test parameters: compound 10.0 µM
measured metric: kinase still bound, per cent of control (%)
Give bare numbers, in %.

Some compounds with known kinase still bound, per cent of control results, for comparison:
| compound | system under test | measured metric | measured result |
| --- | --- | --- | --- |
| CCN1CCN(Cc2ccc(NC(=O)c3ccc(C)c(/C=C/c4cnc5[nH]ccc5c4OC)c3)cc2C(F)(F)F)CC1 | MAP3K2 (human) (UniProt Q9Y2U5) | kinase still bound, per cent of control | 0.65 |
| CCc1nc(-c2cccc(C)c2)c(-c2ccnc(NC(=O)c3ccccc3)c2)s1 | MAP3K2 (human) (UniProt Q9Y2U5) | kinase still bound, per cent of control | 100 |
| Cc1cn(-c2cc(C(=O)Nc3ccc(C)c(NC(=O)c4ccno4)c3)cc(C(F)(F)F)c2)cn1 | MAP3K2 (human) (UniProt Q9Y2U5) | kinase still bound, per cent of control | 100 |
| C=CC(=O)Nc1ccc(C(=O)c2sc(Nc3ccc(N4CCN(C)CC4)cc3OC)nc2N)cc1 | MAP3K2 (human) (UniProt Q9Y2U5) | kinase still bound, per cent of control | 68 |

# return kinase still bound, per cent of control for each item in the list
1. N#Cc1cc(-c2ccnc(Nc3ccc(-n4cnc(-c5cccnc5)n4)cc3)n2)cc(N2CCOCC2)c1
2. O=c1[nH]c2ccccc2n1C1CCN(Cc2ccc(-c3nc4cc5[nH]cnc5cc4nc3-c3ccccc3)cc2)CC1
3. COc1cc2ncnc(Nc3cccc(Cl)c3)c2cc1OC
4. CC1=C(C(=O)Nc2cc3cn[nH]c3cc2F)C(c2ccc(C(F)(F)F)cc2)CC(=O)N1 (centres undefined)
5. N#C/C(=C1/Nc2ccccc2S1)c1ccnc(NCCc2cccnc2)n1

Response:
1. 31
2. 100
3. 30
4. 79
5. 100

---

# Tested on: PIK3CA (human), P42336 [H1047L]
# Sequence (P42336 whole entry H1047L, looked up): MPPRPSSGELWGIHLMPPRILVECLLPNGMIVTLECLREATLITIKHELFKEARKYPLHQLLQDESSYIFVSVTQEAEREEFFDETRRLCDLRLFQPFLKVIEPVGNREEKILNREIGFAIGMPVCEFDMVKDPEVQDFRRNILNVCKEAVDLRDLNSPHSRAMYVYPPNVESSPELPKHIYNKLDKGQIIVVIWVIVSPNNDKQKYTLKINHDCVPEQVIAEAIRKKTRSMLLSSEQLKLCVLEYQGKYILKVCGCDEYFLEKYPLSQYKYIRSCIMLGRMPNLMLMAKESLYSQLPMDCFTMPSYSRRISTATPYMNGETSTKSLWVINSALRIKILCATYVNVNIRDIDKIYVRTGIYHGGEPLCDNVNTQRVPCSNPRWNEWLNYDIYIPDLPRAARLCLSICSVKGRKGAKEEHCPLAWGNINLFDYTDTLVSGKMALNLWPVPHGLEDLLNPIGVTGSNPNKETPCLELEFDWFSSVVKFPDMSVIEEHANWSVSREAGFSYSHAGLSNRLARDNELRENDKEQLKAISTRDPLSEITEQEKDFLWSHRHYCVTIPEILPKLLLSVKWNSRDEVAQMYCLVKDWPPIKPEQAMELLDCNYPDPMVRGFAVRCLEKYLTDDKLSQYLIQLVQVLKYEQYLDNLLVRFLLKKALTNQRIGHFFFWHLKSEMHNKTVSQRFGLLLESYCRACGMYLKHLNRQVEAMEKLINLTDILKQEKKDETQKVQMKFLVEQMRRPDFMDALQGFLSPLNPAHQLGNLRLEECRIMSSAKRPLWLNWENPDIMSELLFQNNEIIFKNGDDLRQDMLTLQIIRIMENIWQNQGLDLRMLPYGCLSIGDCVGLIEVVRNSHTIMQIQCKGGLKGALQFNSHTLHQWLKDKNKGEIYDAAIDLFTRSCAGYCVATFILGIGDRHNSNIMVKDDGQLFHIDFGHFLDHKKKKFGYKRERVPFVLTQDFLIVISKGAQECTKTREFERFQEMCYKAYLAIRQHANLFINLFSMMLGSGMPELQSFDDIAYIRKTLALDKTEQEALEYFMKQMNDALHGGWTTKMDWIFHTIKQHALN
# method notes: KINOMEscan competition binding
# test parameters: compound 10.0 µM
measured metric: kinase still bound, per cent of control (%)
One number for each entry, in %.

| item smiles | system under test | scale unit | kinase still bound, per cent of control |
| --- | --- | --- | --- |
| Cc1ccc(NC(=O)c2cccc(C(C)(C)C#N)c2)cc1Nc1ccc2ncn(C)c(=O)c2c1 | PIK3CA (human), P42336 [H1047L] | % | 100 |
| CC(=O)c1c(C)c2cnc(Nc3ccc(N4CCNCC4)cn3)nc2n(C2CCCC2)c1=O | PIK3CA (human), P42336 [H1047L] | % | 25 |
| C=CC(=O)Nc1cc(-n2c(=O)ccc3cnc4ccc(-c5cn[nH]c5)cc4c32)ccc1C | PIK3CA (human), P42336 [H1047L] | % | 4.6 |
| CS(=O)(=O)N1CCN(Cc2cc3nc(-c4cccc5[nH]ncc45)nc(N4CCOCC4)c3s2)CC1 | PIK3CA (human), P42336 [H1047L] | % | 9.8 |
| NC(=O)Nc1cc(-c2cccc(F)c2)sc1C(=O)N[C@@H]1CCCNC1 | PIK3CA (human), P42336 [H1047L] | % | 100 |
| C[C@@H](Oc1cc(-c2cnn(C3CCNCC3)c2)cnc1N)c1c(Cl)ccc(F)c1Cl | PIK3CA (human), P42336 [H1047L] | % | 48 |

Give measured kinase still bound, per cent of control for every item shown.
1. N#C/C(=C1/Nc2ccccc2S1)c1ccnc(NCCc2cccnc2)n1
2. O=C(O)c1ccc(Nc2ncc3c(n2)-c2ccc(Cl)cc2C(c2c(F)cccc2F)=NC3)cc1
3. COc1cc(N2CCN(C)CC2)ccc1Nc1ncc2c(n1)N(C)c1ccccc1C(=O)N2C

Response:
[85, 79, 100]

---

Please provide measured kinase still bound, per cent of control for the entries that follow.
# system under test: DSTYK (human) (UniProt Q6XUX3)
# Sequence (Q6XUX3 whole entry, looked up): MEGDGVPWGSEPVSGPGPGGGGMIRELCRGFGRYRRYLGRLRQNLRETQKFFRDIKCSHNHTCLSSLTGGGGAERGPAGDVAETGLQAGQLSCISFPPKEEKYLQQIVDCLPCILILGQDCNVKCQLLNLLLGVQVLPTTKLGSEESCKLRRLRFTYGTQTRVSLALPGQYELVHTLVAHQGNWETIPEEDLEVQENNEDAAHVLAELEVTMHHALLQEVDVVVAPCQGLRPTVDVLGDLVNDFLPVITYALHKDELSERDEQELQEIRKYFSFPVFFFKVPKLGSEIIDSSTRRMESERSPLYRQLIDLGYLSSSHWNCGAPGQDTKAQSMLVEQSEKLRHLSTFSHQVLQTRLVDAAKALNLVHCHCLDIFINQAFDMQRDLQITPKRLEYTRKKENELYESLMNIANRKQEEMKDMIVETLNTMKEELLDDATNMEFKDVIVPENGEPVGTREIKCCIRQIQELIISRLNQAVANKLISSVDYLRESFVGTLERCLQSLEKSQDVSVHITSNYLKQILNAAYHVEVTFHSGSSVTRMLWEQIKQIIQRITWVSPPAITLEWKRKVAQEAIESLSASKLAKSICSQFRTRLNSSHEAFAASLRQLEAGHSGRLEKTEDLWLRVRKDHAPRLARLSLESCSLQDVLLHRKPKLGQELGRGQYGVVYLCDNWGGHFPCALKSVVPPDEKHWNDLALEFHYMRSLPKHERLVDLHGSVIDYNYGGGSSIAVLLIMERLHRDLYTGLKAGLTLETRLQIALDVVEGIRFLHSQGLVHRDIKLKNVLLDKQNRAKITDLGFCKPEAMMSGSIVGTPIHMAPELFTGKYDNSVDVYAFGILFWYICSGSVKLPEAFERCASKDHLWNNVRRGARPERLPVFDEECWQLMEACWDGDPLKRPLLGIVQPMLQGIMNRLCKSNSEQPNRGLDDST
# method notes: KINOMEscan competition binding
# test parameters: compound 10.0 µM
One number for each entry, in %.

Consider the worked cases shown below.
| compound | kinase still bound, per cent of control [%] |
| --- | --- |
| O=c1[nH]c2ccccc2n1C1CCN(Cc2ccc(-c3nc4cc5[nH]cnc5cc4nc3-c3ccccc3)cc2)CC1 | 76 |
| CCN1CCN(Cc2ccc(NC(=O)c3ccc(C)c(/C=C/c4cnc5[nH]ccc5c4OC)c3)cc2C(F)(F)F)CC1 | 36 |
| C=CC(=O)Nc1ccc(C(=O)c2sc(Nc3ccc(N4CCN(C)CC4)cc3OC)nc2N)cc1 | 4.7 |
| CCc1nc(-c2cccc(C)c2)c(-c2ccnc(NC(=O)c3ccccc3)c2)s1 | 100 |
| COc1cc2c(Nc3ccc(NC(=O)c4ccccc4)cc3)ncnc2cc1OCCCN1CCOCC1 | 34 |

# map each compound to its kinase still bound, per cent of control
1. COc1cc2ncnc(Nc3cccc(Cl)c3)c2cc1OC
2. CC(=O)c1c(C)c2cnc(Nc3ccc(N4CCNCC4)cn3)nc2n(C2CCCC2)c1=O
3. CC1=C(C(=O)Nc2cc3cn[nH]c3cc2F)C(c2ccc(C(F)(F)F)cc2)CC(=O)N1 (stereo not drawn)
4. CNC(=O)Nc1ccc(-c2nc(N3CC4CCC(C3)O4)c3cnn(C4CCC5(CC4)OCCO5)c3n2)cc1

Response:
1. 43
2. 5
3. 69
4. 100

For the 4 compounds below, give their kinase still bound, per cent of control values.
1. CCN(CCO)CCCOc1ccc2c(Nc3cc(CC(=O)Nc4cccc(F)c4)[nH]n3)ncnc2c1
2. N#Cc1cc(-c2ccnc(Nc3ccc(-n4cnc(-c5cccnc5)n4)cc3)n2)cc(N2CCOCC2)c1
3. CCCS(=O)(=O)Nc1ccc(F)c(C(=O)c2c[nH]c3ncc(Cl)cc23)c1F
4. N#C/C(=C1/Nc2ccccc2S1)c1ccnc(NCCc2cccnc2)n1

Response:
1: 14; 2: 76; 3: 54; 4: 51

Ref: the kinase profiling compilation of Christmann-Franck et al. (2016)
